// reported MIC per item
# Tested on: Staphylococcus aureus
# TEST PROTOCOL: Antimicrobial activity against Staphylococcus aureus ATCC […] after 18-24 hrs by two-fold serial dilution method
# Format: functional

Answered examples (7):
COc1cc(CO/N=C2\CN(c3nc4c(cc3F)c(=O)c(C(=O)O)cn4C3CC3)CC2CN)ccc1OCc1ccccc1.CS(=O)(=O)O (racemic)    < 0.008 µg/mL
COc1ccc(OC)c(CO/N=C2\CN(c3nc4c(cc3F)c(=O)c(C(=O)O)cn4C3CC3)CC2CN)c1.CS(=O)(=O)O (racemic)    < 0.008 µg/mL
C[C@H]1COc2c(N3CCN(C)CC3)c(F)cc3c(=O)c(C(=O)O)cn1c23.C[C@H]1COc2c(N3CCN(C)CC3)c(F)cc3c(=O)c(C(=O)O)cn1c23.O [LEVOFLOXACIN]    0.25 µg/mL
CS(=O)(=O)O.NCC1CN(c2nc3c(cc2F)c(=O)c(C(=O)O)cn3C2CC2)C/C1=N\OCc1cc2c(cc1Cl)OCO2 (racemic)    0.015 µg/mL
CS(=O)(=O)O.NCC1CN(c2nc3c(cc2F)c(=O)c(C(=O)O)cn3C2CC2)C/C1=N\OCc1ccc(OCc2ccccc2)cc1 (racemic)    2 µg/mL
COc1cc(CO/N=C2\CN(c3nc4c(cc3F)c(=O)c(C(=O)O)cn4C3CC3)CC2CN)cc(Cl)c1OC.CS(=O)(=O)O (racemic)    < 0.008 µg/mL
COc1ccc(CO/N=C2\CN(c3nc4c(cc3F)c(=O)c(C(=O)O)cn4C3CC3)CC2CN)c(Cl)c1OC.CS(=O)(=O)O (racemic)    0.008 µg/mL

Look at this compound and give its reported MIC. CS(=O)(=O)O.NCC1CN(c2nc3c(cc2F)c(=O)c(C(=O)O)cn3C2CC2)C/C1=N\OCc1ccc2c(c1)OCO2 (racemic)
0.06 µg/mL

* * *

# Test system: Pseudomonas aeruginosa
# TEST PROTOCOL: Antimicrobial activity against extended spectrum beta-lactamases-producing Pseudomonas aeruginosa 10-15 after 18-24 hrs by two-fold serial dilution method
# Assay type: functional
// reported MIC per item
Your answer is read as µg/mL, so omit the unit and give the number.

CS(=O)(=O)O.NCC1CN(c2nc3c(cc2F)c(=O)c(C(=O)O)cn3C2CC2)C/C1=N\OCc1ccc(OCc2ccccc2)cc1 (racemic)    8
COc1cc(CO/N=C2\CN(c3nc4c(cc3F)c(=O)c(C(=O)O)cn4C3CC3)CC2CN)c([N+](=O)[O-])cc1OC.CS(=O)(=O)O (racemic)    32
COc1ccc(CO/N=C2\CN(c3nc4c(cc3F)c(=O)c(C(=O)O)cn4C3CC3)CC2CN)c([N+](=O)[O-])c1OC.CS(=O)(=O)O (racemic)    4

Lab note: next compound to report on.
Look at this compound and give its reported MIC. CS(=O)(=O)O.NCC1CN(c2nc3c(cc2F)c(=O)c(C(=O)O)cn3C2CC2)C/C1=N\OCc1cc2c(cc1Cl)OCO2 (racemic)
32

* * *

# Tested on: Escherichia coli
# TEST PROTOCOL: Antimicrobial activity against Escherichia coli 10-1 after 18-24 hrs by two-fold serial dilution method
# Assay type: functional
ATTRIBUTE MEASURED: MIC

Answered examples (3):
COc1ccc(CO/N=C2\CN(c3nc4c(cc3F)c(=O)c(C(=O)O)cn4C3CC3)CC2CN)c(Cl)c1OC.CS(=O)(=O)O (racemic)    > 128 µg/mL
COc1cc(CO/N=C2\CN(c3nc4c(cc3F)c(=O)c(C(=O)O)cn4C3CC3)CC2CN)cc(Cl)c1OC.CS(=O)(=O)O (racemic)    > 128 µg/mL
CS(=O)(=O)O.NCC1CN(c2nc3c(cc2F)c(=O)c(C(=O)O)cn3C2CC2)C/C1=N\OCc1cc2c(cc1Cl)OCO2 (racemic)    > 128 µg/mL

Lab note: next compound to report on.
Look at this compound and give its reported MIC. COc1ccc(CO/N=C2\CN(c3nc4c(cc3F)c(=O)c(C(=O)O)cn4C3CC3)CC2CN)c(OC)c1.CS(=O)(=O)O (racemic)
> 128 µg/mL

* * *

# Tested on: Staphylococcus epidermidis
# TEST PROTOCOL: Antimicrobial activity against extended spectrum beta-lactamases-producing methicillin-resistant Staphylococcus epidermidis 10-13 after 18-24 hrs by two-fold serial dilution method
# Type: functional
ATTRIBUTE MEASURED: MIC (µg/mL)
Your answer is read as µg/mL, so omit the unit and give the number.

COc1cc(CO/N=C2\CN(c3nc4c(cc3F)c(=O)c(C(=O)O)cn4C3CC3)CC2CN)ccc1OC(F)F.CS(=O)(=O)O (racemic)    4
COc1ccc(CO/N=C2\CN(c3nc4c(cc3F)c(=O)c(C(=O)O)cn4C3CC3)CC2CN)cc1OC.CS(=O)(=O)O (racemic)    0.25
COc1ccc(CO/N=C2\CN(c3nc4c(cc3F)c(=O)c(C(=O)O)cn4C3CC3)CC2CN)c(Cl)c1OC.CS(=O)(=O)O (racemic)    0.5
CO/N=C1\CN(c2nc3c(cc2F)c(=O)c(C(=O)O)cn3C2CC2)CC1CN (stereo not drawn) [GEMIFLOXACIN]    0.5
CS(=O)(=O)O.NCC1CN(c2nc3c(cc2F)c(=O)c(C(=O)O)cn3C2CC2)C/C1=N\OCc1ccc2c(c1)OCCO2 (racemic)    0.5

Look at this molecule and give its reported MIC. CS(=O)(=O)O.NCC1CN(c2nc3c(cc2F)c(=O)c(C(=O)O)cn3C2CC2)C/C1=N\OCc1ccccc1 (racemic)
1

Same question for CS(=O)(=O)O.NCC1CN(c2nc3c(cc2F)c(=O)c(C(=O)O)cn3C2CC2)C/C1=N\OCc1ccc(OCc2ccccc2)cc1 (racemic) please.
4

Same question for COc1ccc(CO/N=C2\CN(c3nc4c(cc3F)c(=O)c(C(=O)O)cn4C3CC3)CC2CN)c(OC)c1OC.CS(=O)(=O)O (racemic) please.
0.5

* * *

// reported MIC per item
# Test system: Pseudomonas aeruginosa
# TEST PROTOCOL: Antimicrobial activity against extended spectrum beta-lactamases-producing Pseudomonas aeruginosa 10-5 after 18-24 hrs by two-fold serial dilution method
# Type: functional
Your answer is read as µg/mL, so omit the unit and give the number.

CS(=O)(=O)O.NCC1CN(c2nc3c(cc2F)c(=O)c(C(=O)O)cn3C2CC2)C/C1=N\OCc1cc2c(cc1Cl)OCO2 (racemic)    8
COc1cc(CO/N=C2\CN(c3nc4c(cc3F)c(=O)c(C(=O)O)cn4C3CC3)CC2CN)ccc1OCc1ccccc1.CS(=O)(=O)O (racemic)    16
COc1cc(CO/N=C2\CN(c3nc4c(cc3F)c(=O)c(C(=O)O)cn4C3CC3)CC2CN)cc(OC)c1OC.CS(=O)(=O)O (racemic)    8
COc1cc(CO/N=C2\CN(c3nc4c(cc3F)c(=O)c(C(=O)O)cn4C3CC3)CC2CN)c([N+](=O)[O-])cc1OC.CS(=O)(=O)O (racemic)    16
COc1ccc(CO/N=C2\CN(c3nc4c(cc3F)c(=O)c(C(=O)O)cn4C3CC3)CC2CN)c(Cl)c1OC.CS(=O)(=O)O (racemic)    16

Lab note: next molecule to report on.
Look at this molecule and give its reported MIC. COc1cccc(CO/N=C2\CN(c3nc4c(cc3F)c(=O)c(C(=O)O)cn4C3CC3)CC2CN)c1OC.CS(=O)(=O)O (racemic)
4

* * *

# Tested on: Klebsiella pneumoniae
# TEST PROTOCOL: Antimicrobial activity against extended spectrum beta-lactamases-producing Klebsiella pneumoniae 10-2 after 18-24 hrs by two-fold serial dilution method
# Format: functional
ATTRIBUTE MEASURED: MIC

Answered examples (8):
COc1cccc(CO/N=C2\CN(c3nc4c(cc3F)c(=O)c(C(=O)O)cn4C3CC3)CC2CN)c1OC.CS(=O)(=O)O (racemic)    > 128 µg/mL
COc1ccc(CO/N=C2\CN(c3nc4c(cc3F)c(=O)c(C(=O)O)cn4C3CC3)CC2CN)cc1OC.CS(=O)(=O)O (racemic)    > 128 µg/mL
COc1cc(Br)c(CO/N=C2\CN(c3nc4c(cc3F)c(=O)c(C(=O)O)cn4C3CC3)CC2CN)cc1OC.CS(=O)(=O)O (racemic)    > 128 µg/mL
COc1cccc(OC)c1CO/N=C1\CN(c2nc3c(cc2F)c(=O)c(C(=O)O)cn3C2CC2)CC1CN.CS(=O)(=O)O (racemic)    64 µg/mL
CS(=O)(=O)O.Cc1ccc(CO/N=C2\CN(c3nc4c(cc3F)c(=O)c(C(=O)O)cn4C3CC3)CC2CN)cc1C (racemic)    > 128 µg/mL
COc1ccc(OC)c(CO/N=C2\CN(c3nc4c(cc3F)c(=O)c(C(=O)O)cn4C3CC3)CC2CN)c1.CS(=O)(=O)O (racemic)    > 128 µg/mL
COc1cc(CO/N=C2\CN(c3nc4c(cc3F)c(=O)c(C(=O)O)cn4C3CC3)CC2CN)ccc1OCc1ccccc1.CS(=O)(=O)O (racemic)    > 128 µg/mL
CO/N=C1\CN(c2nc3c(cc2F)c(=O)c(C(=O)O)cn3C2CC2)CC1CN (centres undefined)    16 µg/mL

Look at this compound and give its reported MIC. CS(=O)(=O)O.NCC1CN(c2nc3c(cc2F)c(=O)c(C(=O)O)cn3C2CC2)C/C1=N\OCc1ccc2c(c1)OCO2 (racemic)
> 128 µg/mL

Same question for COc1cc(CO/N=C2\CN(c3nc4c(cc3F)c(=O)c(C(=O)O)cn4C3CC3)CC2CN)ccc1OC(F)F.CS(=O)(=O)O (racemic) please.
> 128 µg/mL

Same question for C[C@H]1COc2c(N3CCN(C)CC3)c(F)cc3c(=O)c(C(=O)O)cn1c23.C[C@H]1COc2c(N3CCN(C)CC3)c(F)cc3c(=O)c(C(=O)O)cn1c23.O please.
8 µg/mL

Same question for CS(=O)(=O)O.NCC1CN(c2nc3c(cc2F)c(=O)c(C(=O)O)cn3C2CC2)C/C1=N\OCc1ccccc1 (racemic) please.
64 µg/mL

Same question for CS(=O)(=O)O.NCC1CN(c2nc3c(cc2F)c(=O)c(C(=O)O)cn3C2CC2)C/C1=N\OCc1ccc2c(c1)OCCO2 (racemic) please.
> 128 µg/mL

Same question for COc1ccc(CO/N=C2\CN(c3nc4c(cc3F)c(=O)c(C(=O)O)cn4C3CC3)CC2CN)c(OC)c1OC.CS(=O)(=O)O (racemic) please.
> 128 µg/mL

Same question for COc1cc(CO/N=C2\CN(c3nc4c(cc3F)c(=O)c(C(=O)O)cn4C3CC3)CC2CN)c([N+](=O)[O-])cc1OC.CS(=O)(=O)O (racemic) please.
> 128 µg/mL

Same question for CS(=O)(=O)O.NCC1CN(c2nc3c(cc2F)c(=O)c(C(=O)O)cn3C2CC2)C/C1=N\OCc1cc2c(cc1Cl)OCO2 (racemic) please.
> 128 µg/mL

Same question for COc1cc(F)c(CO/N=C2\CN(c3nc4c(cc3F)c(=O)c(C(=O)O)cn4C3CC3)CC2CN)cc1OC.CS(=O)(=O)O (racemic) please.
> 128 µg/mL

Same question for COc1cc(CO/N=C2\CN(c3nc4c(cc3F)c(=O)c(C(=O)O)cn4C3CC3)CC2CN)cc(Cl)c1OC.CS(=O)(=O)O (racemic) please.
> 128 µg/mL

Same question for COc1ccc(CO/N=C2\CN(c3nc4c(cc3F)c(=O)c(C(=O)O)cn4C3CC3)CC2CN)c(OC)c1.CS(=O)(=O)O (racemic) please.
> 128 µg/mL
